# test-description: Four-way crossover pharmacokinetic study of omeprazole (limited colonic absorption)
# Format: in vivo
# cond: human, plasma, oral, 20 mg, (ii) Fed; compared to fasted state; read-out: Relative bioavailability
measure: bioavailability (%)
Give bare numbers, in %.

Requested field: bioavailability. Item: COc1ccc2[nH]c([S+]([O-])Cc3ncc(C)c(OC)c3C)nc2c1 (stereo not shown) 90

====

# test-description: Two-period crossover study in GERD patients: plasma omeprazole PK
# Assay type: in vivo, human
# cond: human, plasma, oral, 20 mg at dinner + 20 mg four hours later; patients with NAB (n = 5); read-out: median AUC (25-75%)
measure: AUC (ng·h/mL)
Give bare numbers, in ng·h/mL.

I have this compound here, COc1ccc2[nH]c([S+]([O-])Cc3ncc(C)c(OC)c3C)nc2c1 (stereo not shown) , and I need its recorded AUC. 1670

====

# test-description: Four-way crossover pharmacokinetic study of omeprazole (limited colonic absorption)
# Assay type: in vivo
# cond: human, plasma, iv, 20 mg, (iv) Colonic; compared to fasted state; read-out: Relative bioavailability
measure: bioavailability (%)
Give bare numbers, in %.

I'd like to know its bioavailability. The compound in question is COc1ccc2[nH]c([S+]([O-])Cc3ncc(C)c(OC)c3C)nc2c1 (stereo not shown) 22

====

# test-description: Four-way crossover pharmacokinetic study of omeprazole (limited colonic absorption)
# Assay type: in vivo
# cond: human, plasma, oral, 20 mg, (ii) 20 mg omeprazole in the fed state; mean±SD, n = 7
measure: AUC (ng·h/mL)
Answers are plain numbers, in ng·h/mL.

Query: AUC; subject: COc1ccc2[nH]c([S+]([O-])Cc3ncc(C)c(OC)c3C)nc2c1 (stereo not shown) [omeprazole] 849

====

# test-description: Four-way crossover pharmacokinetic study of omeprazole (limited colonic absorption)
# Format: in vivo
# cond: human, plasma, iv, 20 mg, (iv) Colonic
measure: Tmax (h)
Answers are plain numbers, in h.

Which Tmax is reported for this compound? COc1ccc2[nH]c([S+]([O-])Cc3ncc(C)c(OC)c3C)nc2c1 (stereo not shown) 1.8

====

# test-description: Four-way crossover pharmacokinetic study of omeprazole (limited colonic absorption)
# Assay type: in vivo
# cond: human, plasma, oral, 20 mg, (iii) 20 mg omeprazole in the fasted state; mean±SD, n = 7
# Text: Nine healthy subjects were entered into the study with an intention to complete treatment of at least six subjects. […] A period of at least four days for washout was allowed between dosing.
measure: AUC (µg·h/mL)
Give bare numbers, in µg·h/mL.

What measured AUC goes with COc1ccc2[nH]c([S+]([O-])Cc3ncc(C)c(OC)c3C)nc2c1 (stereo not shown) ? 0.969

====

# test-description: Four-way crossover pharmacokinetic study of omeprazole (limited colonic absorption)
# Format: in vivo
# cond: human, plasma, oral, 20 mg, (i) SCR, fed state; compared to fasted state; read-out: Relative bioavailability
measure: bioavailability (%)
One number for each entry, in %.

Suppose we examine the compound COc1ccc2[nH]c([S+]([O-])Cc3ncc(C)c(OC)c3C)nc2c1 (stereo not shown) [omeprazole] ; what bioavailability value has been reported? 61

====

# test-description: Four-way crossover pharmacokinetic study of omeprazole (limited colonic absorption)
# Format: in vivo
# cond: human, plasma, iv, 20 mg, (iv) 20 mg omeprazole delivered to the ascending colon via ENTERION capsule; mean±SD
# Description: Nine healthy subjects were entered into the study with an intention to complete treatment of at least six subjects. […] A period of at least four days for washout was allowed between dosing.
measure: AUC (µg·h/mL)
Give bare numbers, in µg·h/mL.

Form field: reported AUC of COc1ccc2[nH]c([S+]([O-])Cc3ncc(C)c(OC)c3C)nc2c1 (stereo not shown) 0.242
